Origin of measurements: patent US6303749A

# pIC50 per record follows
Target: human melanocortin-4 (MC-4) receptor (human, UniProt P32245)
Assay: displacement of 125I-AGRP, membranes of HEK 293 cells with hMC4 (value column 2; its head prints hMC3)
pIC50: −log10 of the molar value. Square brackets hold non-standard residues; d marks the D form. Ends that are not written are not given here. Abu = CC[C@H](N)C(=O)O
PARAMETER: pIC50

[[record]]
binder = "HESCLGQQVPC[Abu]DP[Abu]ATCYCRFFNAFCYCRKL (disulfide (positions not given here)) [peptide of SEQ ID NO:2]"
parameter = "pIC50"
bound_type = "="
meas_value = 7.30

[[record]]
binder = "[Abu][Abu]DPCAS[Abu]QCRFFRSACS[Abu]RVLSLNC (disulfide (positions not given here); also: oxidised to disulfides, pairs not given here) [peptide of SEQ ID NO:17]"
parameter = "pIC50"
bound_type = "<"
meas_value = 6.00

